SUBJECT_OF_TEST: Cytochrome P450 2D6 (Homo sapiens)
Sequence (P10635 whole entry): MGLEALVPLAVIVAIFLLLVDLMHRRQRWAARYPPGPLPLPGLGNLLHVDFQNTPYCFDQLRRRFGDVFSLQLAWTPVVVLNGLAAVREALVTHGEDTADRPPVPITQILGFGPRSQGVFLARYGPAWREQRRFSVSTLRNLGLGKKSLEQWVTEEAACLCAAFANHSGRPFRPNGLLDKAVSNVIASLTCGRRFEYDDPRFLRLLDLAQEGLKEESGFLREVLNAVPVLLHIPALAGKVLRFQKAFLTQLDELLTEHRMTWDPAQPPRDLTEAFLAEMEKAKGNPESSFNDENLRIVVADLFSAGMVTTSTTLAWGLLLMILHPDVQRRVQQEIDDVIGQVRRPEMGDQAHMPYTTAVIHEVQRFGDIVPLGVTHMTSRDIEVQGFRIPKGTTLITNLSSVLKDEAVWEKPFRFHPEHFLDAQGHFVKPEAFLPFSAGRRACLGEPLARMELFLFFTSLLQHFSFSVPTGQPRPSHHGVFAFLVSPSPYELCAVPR
pIC50: −log10 of the molar value.
RECORDED_ENDPOINT: pIC50

Measured pIC50 (Cytochrome P450 2D6 (Homo sapiens)), entry `CCN(C(=O)c1cc(C(C)C)c(O)cc1O)c1cccnc1` : < 4.30
